# Measurement target: T1, PCSK9-BP15-His6 (human, UniProt Q8NBP7 31-692, biotin on the BP15 biotin receiving peptide)
# T1 construct: It holds a signal peptide (underlined in print); also called WT PCSK9; bio-WT-PCSK9
# Test protocol: ELISA, bio-WT-PCSK9 captured on streptavidin plate
Measured quantity: EC50 (µg/mL)
Provide the reading as a plain figure in µg/mL.

Which EC50 value belongs to h001-10 (antibody, human IgG1, V domains shown, Variable regions only; also called h001_VH.1B + h001_VL.1A) VH: QVQLVQSGAEVKKPGASVKVSCKASGYTFTDYWMHWVRQAPGQGLEWMGYINPSSGFTKYHQNFKDRVTMTRDTSISTAYMELSRLTSDDTAVYYCARQYDYDEDWYFDVWGQGTTVTVSS VL: DIQMTQSPSSLSASVGDRVTITCKSSQSLLNSRTRKNFLAWYQQKPGKAPKLLIYWASTRESGVPDRFSGSGSGTDFTLTISSLQPEDFATYYCKQSFNLFTFGQGTKLEIK ?
0.0176
